The measured values listed here are drawn from patent US20260078159A1.

Biological target: human PD1 on cells (human, UniProt Q15116 25-288)
Sequence (Q15116 25-288 limits assumed): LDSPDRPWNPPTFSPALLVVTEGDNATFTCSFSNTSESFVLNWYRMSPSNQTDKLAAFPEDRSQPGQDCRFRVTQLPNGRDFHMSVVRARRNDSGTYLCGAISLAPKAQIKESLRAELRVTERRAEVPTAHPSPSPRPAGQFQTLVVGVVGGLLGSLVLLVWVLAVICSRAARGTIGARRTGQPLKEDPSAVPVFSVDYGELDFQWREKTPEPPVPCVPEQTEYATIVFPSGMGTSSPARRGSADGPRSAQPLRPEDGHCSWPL
Test: cell-based or functional assay
endpointLabel: PD1 blocking activity (reporter assay) Fold induction (fold)
Enter your answer as a number in fold; do not include the unit.

Completed entries (count: 3):
>  <binder>
P-1148 (antibody, human IgG1, kappa, V domains shown, Full-length IgG1 L234A/L235A/G237A, kappa) VH: QVQLVQSGVEVKKPGASVKVSCKASGYTFTNYYMYWVRQAPGQGLEWMGGINPSNGGTNFAQKFQGRVTLTTDSSTTTAYMELKSLQFDDTAVYYCARRDYRFDMGFDYWGQGTTVTVSS VL: EIVLTQSPATLSLSPGERATLSCRASQGVSTSGYSYLHWYQQKPGQAPRLLIYLASYRASGVPARFSGSGSGTDFTLTISSLEPEDFAVYYCQHSRDLPLTFGGGTKVEIKR

>  <unitsOfMeasure>
fold

>  <endpointResult>
4.63

$$$$
>  <binder>
P-1150 (antibody, human IgG1, kappa, V domains shown, Full-length IgG1 L234A/L235A/G237A, kappa) VH: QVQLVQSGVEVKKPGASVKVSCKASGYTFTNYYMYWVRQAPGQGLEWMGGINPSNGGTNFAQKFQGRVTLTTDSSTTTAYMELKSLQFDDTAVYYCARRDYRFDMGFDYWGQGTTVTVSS VL: EIVLTQSPATLSLSPGERATLSCRASQGVSTSGYSYLAWYQQKPGQAPRLLIYLASYRASGVPARFSGSGSGTDFTLTISSLEPEDFAVYYCQHSRDLPLTFGGGTKVEIKR

>  <unitsOfMeasure>
fold

>  <endpointResult>
3.49

$$$$
>  <binder>
P-1151 (antibody, human IgG1, kappa, V domains shown, Full-length IgG1 L234A/L235A/G237A, kappa) VH: QVQLVQSGVEVKKPGASVKVSCKASGYTFTNYYMYWVRQAPGQGLEWMGGINPSNGGTNYAQKFQGRVTLTTDSSTTTAYMELKSLQFDDTAVYYCARRDYRFDMGFDYWGQGTTVTVSS VL: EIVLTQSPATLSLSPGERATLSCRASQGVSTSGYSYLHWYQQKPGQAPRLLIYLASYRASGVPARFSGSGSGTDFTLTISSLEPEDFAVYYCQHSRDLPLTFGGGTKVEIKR

>  <unitsOfMeasure>
fold

>  <endpointResult>
4.15

$$$$

-- ask Name the recorded PD1 blocking activity (reporter assay) Fold induction for P-1153 (antibody, human IgG1, kappa, V domains shown, Full-length IgG1 L234A/L235A/G237A, kappa) VH: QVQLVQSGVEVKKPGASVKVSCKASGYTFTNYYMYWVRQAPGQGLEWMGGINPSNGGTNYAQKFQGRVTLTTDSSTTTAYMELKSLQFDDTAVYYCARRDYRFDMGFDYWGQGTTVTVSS VL: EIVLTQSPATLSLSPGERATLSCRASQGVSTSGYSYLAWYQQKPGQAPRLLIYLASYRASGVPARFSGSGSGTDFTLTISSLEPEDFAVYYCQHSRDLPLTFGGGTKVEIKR .
-- reply 3.04
